// TTK (Homo sapiens) IC50 records

Below, each entry is followed by its recorded IC50 result.
• N#Cc1c[nH]c2nc(Nc3ccc(C(=O)N4CCC(N5CCOCC5)CC4)c4c3OCCO4)cc(C3CC3)c12 = < 100 nM
• COc1cc(S(=O)(=O)N2CCOCC2)ccc1Nc1cc(C2CC2)c2c(C#N)c[nH]c2n1 = < 100 nM
• COCCNc1cc(Nc2ccc(S(=O)(=O)N3CCC(N4CCOCC4)CC3)c3c2OCCO3)nc2[nH]cc(C(F)(F)F)c12 = 101 to 300 nM

Here is another compound to look at.
For the compound shown here, O=C(c1ccc(Nc2cc(C3CC3)c3c(C(F)(F)F)c[nH]c3n2)c2c1OCCO2)N1CCN(C2COC2)CC1 , give the reported IC50.
< 100 nM

---

Target system: MYLK (Homo sapiens, UniProt Q15746)
Construct: purchased DiscoverX
Sequence (Q15746 whole entry): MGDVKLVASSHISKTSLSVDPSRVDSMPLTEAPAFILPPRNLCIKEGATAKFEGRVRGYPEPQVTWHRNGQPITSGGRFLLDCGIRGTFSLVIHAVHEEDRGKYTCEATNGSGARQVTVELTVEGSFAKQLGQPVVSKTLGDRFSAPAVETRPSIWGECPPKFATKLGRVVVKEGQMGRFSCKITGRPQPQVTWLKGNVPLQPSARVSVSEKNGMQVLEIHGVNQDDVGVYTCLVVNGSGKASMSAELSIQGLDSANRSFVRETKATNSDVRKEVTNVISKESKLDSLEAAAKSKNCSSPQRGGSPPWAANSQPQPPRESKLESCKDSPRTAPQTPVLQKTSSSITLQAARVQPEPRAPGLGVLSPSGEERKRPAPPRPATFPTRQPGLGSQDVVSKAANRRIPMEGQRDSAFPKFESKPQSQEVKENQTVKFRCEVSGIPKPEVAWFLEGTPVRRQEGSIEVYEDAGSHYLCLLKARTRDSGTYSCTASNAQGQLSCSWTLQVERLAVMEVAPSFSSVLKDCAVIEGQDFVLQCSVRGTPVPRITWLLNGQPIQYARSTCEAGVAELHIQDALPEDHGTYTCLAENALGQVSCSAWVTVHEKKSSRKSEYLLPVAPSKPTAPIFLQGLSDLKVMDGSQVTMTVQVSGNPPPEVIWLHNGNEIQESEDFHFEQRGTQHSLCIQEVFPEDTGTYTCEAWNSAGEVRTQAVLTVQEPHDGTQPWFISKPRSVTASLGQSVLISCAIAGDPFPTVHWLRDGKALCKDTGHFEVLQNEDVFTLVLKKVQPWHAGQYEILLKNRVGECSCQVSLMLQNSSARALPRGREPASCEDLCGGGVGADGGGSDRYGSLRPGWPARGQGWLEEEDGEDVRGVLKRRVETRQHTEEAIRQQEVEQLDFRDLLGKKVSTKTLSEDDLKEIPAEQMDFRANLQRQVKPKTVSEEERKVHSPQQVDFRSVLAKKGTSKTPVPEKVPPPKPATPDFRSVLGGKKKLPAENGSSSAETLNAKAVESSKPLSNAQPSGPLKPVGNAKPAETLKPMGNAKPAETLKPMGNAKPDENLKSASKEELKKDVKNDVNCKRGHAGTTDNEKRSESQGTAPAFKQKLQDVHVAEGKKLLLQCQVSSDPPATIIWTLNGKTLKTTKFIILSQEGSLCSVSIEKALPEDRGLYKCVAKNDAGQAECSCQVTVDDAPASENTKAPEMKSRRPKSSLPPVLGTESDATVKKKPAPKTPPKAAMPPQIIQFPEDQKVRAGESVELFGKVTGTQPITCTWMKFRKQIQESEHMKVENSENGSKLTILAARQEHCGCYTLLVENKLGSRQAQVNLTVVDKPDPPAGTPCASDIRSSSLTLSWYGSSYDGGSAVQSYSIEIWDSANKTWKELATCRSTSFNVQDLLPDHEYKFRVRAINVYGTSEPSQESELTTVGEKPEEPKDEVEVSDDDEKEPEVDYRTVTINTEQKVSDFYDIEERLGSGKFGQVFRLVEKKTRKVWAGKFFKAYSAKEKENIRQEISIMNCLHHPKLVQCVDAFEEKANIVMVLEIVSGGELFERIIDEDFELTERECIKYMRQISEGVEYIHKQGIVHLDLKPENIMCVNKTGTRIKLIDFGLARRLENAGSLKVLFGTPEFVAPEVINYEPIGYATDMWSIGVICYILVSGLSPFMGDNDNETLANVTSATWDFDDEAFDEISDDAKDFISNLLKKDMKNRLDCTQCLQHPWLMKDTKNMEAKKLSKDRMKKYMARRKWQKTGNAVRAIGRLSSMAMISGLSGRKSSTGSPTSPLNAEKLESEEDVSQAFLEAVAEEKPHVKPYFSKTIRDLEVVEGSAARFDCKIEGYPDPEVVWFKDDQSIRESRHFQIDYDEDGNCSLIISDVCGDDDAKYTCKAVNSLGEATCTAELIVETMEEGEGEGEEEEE
Test protocol: scanMAX Kinase panel (DiscoverX), % control
Assay type: binding
Condition info: <35% = active
Measured parameter: remaining binding at 1 µM (%)

• CNc1cc(Nc2ccc(S(=O)(=O)N3CCC(N4CCOCC4)CC3)cc2OC)nc2[nH]cc(C(F)(F)F)c12 = 8

(1) CNc1cc(Nc2ccc(C(=O)N3CCC(N4CCOCC4)CC3)c3c2OCCO3)nc2[nH]cc(C(F)(F)F)c12
(2) CNc1cc(Nc2ccc(C(=O)N3CC[C@H](N4CCOCC4)C3)c3c2OCC3)nc2[nH]cc(C(F)(F)F)c12
(3) O=C(c1ccc(Nc2cc(C3CC3)c3c(C(F)(F)F)c[nH]c3n2)c2c1CCO2)N1CC[C@H](N2CCOCC2)C1
(4) CCNc1cc(Nc2ccc(P3(=O)CCN(C4CC4)CC3)cc2OC)nc2[nH]cc(C(F)(F)F)c12
Endpoint returns the given molecules ordered by ascending remaining binding at 1 µM. // respond by listing labels in the order requested
1, 2, 4, 3

---

LRRK2 (Homo sapiens, UniProt Q5S007) measurements of IC50, listed per entry.
Sequence (Q5S007 970-2527 limits assumed): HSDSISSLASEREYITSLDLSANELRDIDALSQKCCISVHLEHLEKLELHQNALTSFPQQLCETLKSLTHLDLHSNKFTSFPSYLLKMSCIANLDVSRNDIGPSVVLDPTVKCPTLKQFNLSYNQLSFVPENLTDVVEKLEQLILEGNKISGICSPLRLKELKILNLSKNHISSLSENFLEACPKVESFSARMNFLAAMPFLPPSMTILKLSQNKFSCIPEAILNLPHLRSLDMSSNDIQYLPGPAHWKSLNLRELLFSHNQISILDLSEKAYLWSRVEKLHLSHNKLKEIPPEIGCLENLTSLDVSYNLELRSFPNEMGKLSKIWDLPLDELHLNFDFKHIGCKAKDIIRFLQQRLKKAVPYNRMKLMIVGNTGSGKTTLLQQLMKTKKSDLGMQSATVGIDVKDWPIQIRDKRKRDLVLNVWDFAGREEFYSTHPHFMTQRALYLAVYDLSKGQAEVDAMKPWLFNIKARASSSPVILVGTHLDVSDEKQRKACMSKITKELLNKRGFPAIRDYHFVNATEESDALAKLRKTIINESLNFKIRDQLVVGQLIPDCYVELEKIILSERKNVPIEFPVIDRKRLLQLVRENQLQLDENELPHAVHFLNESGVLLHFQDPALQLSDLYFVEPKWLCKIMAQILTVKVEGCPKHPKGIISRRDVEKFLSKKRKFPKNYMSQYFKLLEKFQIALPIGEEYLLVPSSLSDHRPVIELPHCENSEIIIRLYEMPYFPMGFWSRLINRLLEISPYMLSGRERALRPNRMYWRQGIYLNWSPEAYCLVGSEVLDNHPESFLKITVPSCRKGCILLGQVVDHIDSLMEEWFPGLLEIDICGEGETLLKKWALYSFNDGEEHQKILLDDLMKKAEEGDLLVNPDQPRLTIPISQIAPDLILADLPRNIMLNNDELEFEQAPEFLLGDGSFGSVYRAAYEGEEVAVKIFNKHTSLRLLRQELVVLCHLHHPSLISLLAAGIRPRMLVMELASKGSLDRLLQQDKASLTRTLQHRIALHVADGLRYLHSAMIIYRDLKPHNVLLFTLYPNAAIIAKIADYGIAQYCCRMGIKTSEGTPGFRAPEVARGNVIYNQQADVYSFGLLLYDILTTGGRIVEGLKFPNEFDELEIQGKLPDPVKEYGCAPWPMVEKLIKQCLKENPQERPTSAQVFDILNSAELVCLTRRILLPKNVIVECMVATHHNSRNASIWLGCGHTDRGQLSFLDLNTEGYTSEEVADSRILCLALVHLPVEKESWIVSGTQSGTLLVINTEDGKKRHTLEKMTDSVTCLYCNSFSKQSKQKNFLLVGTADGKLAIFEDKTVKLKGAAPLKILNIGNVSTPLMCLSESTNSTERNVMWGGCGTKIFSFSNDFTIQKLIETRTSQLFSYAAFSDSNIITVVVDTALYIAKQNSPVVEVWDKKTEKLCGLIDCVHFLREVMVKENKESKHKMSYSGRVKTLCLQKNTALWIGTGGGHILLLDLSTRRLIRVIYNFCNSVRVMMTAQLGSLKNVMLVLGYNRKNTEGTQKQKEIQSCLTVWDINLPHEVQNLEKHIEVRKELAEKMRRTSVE

* CNc1cc(Nc2ccc(S(C)(=O)=O)cc2OC)nc2[nH]cc(C#N)c12 | < 100 nM
* COCCNc1cc(Nc2ccc(C(=O)N3CCOCC3)c3c2OCCO3)nc2[nH]cc(C#N)c12 | < 100 nM
* CCNc1cc(Nc2ccc(S(C)(=O)=O)cc2OC)nc2[nH]cc(C#N)c12 | < 100 nM
* CCNc1cc(Nc2ccc(P3(=O)CCN(C(C)=O)CC3)cc2OC)nc2[nH]cc(C#N)c12 | < 100 nM
* O=C(c1ccc(Nc2cc(C3CC3)c3c(C(F)(F)F)c[nH]c3n2)c2c1CCO2)N1CCC(N2CCOCC2)CC1 | < 100 nM
* CNc1cc(Nc2ccc(S(=O)(=O)N3CCC(N4CCOCC4)CC3)c3c2OCCO3)nc2[nH]cc(C(F)(F)F)c12 | < 100 nM
* CCNc1cc(Nc2ccc(C(=O)N3CCC(N4CCOCC4)CC3)c3c2OCCO3)nc2[nH]cc(C(F)(F)F)c12 | < 100 nM
* CNc1cc(Nc2ccc(P3(=O)CCN(C4CC4)CC3)cc2OC)nc2[nH]cc(C(F)(F)F)c12 | 101 to 300 nM
* CC(C)CNc1cc(Nc2ccc(C(=O)N3CCOCC3)c3c2OCCO3)nc2[nH]cc(C(F)(F)F)c12 | < 100 nM
* CCNc1cc(Nc2ccc(S(=O)(=O)N3CCC(N4CCOCC4)CC3)cc2OC)nc2[nH]cc(C#N)c12 | < 100 nM

Quick check: IC50 on LRRK2 (Homo sapiens, UniProt Q5S007), item CCNc1cc(Nc2ccc(C(=O)N3CCC(N4CCOCC4)CC3)c3c2OCO3)nc2[nH]cc(C(F)(F)F)c12 ?
< 100 nM

LRRK2 (Homo sapiens, UniProt Q5S007) / IC50 / CCCNc1cc(Nc2ccc(C(=O)N3CCOCC3)c3c2OCCO3)nc2[nH]cc(C#N)c12 : value?
< 100 nM

Please tell me: IC50 of CCNc1cc(Nc2ccc(C(=O)N3CC[C@@H](N4CCOCC4)C3)c3c2OCC3)nc2[nH]cc(C(F)(F)F)c12 , system LRRK2 (Homo sapiens, UniProt Q5S007)?
101 to 300 nM

---

Target system: LRRK2 (G2019S) (Homo sapiens, UniProt Q5S007, G2019S)
Sequence (Q5S007 970-2527 G2019S limits assumed): as the sequence (Q5S007 970-2527 limits assumed) above, with G1050S counted along it
Test protocol: LRRK2 G2019S enzyme inhibition, ADP-Glo kinase assay
# IC50 listing for each entry below

* COc1cc(S(=O)(=O)N2CCOCC2)ccc1Nc1cc(NC2CCCCC2)c2cc[nH]c2n1 | 301 to 1000 nM

Could you share which IC50 value was measured for CCNc1cc(Nc2ccc(C(=O)N3CCOCC3)c3c2OCCO3)nc2[nH]cc(C#N)c12 ?
< 100 nM

---

System: IL-6
Test protocol: IL-6 secretion inhibition in LPS-treated THP-1 cells (ELISA)
Type: cell-based
Condition info: Homo sapiens, compound 0.5 μM, LPS 500 ng/ml, 24 hours, read-out: THP1/IL6 (% inhib)
Reported inhibition at 0.5 µM values follow for various molecules
Expressed in %, but write only the number.

* CCNc1cc(Nc2ccc(C(=O)N3CCN(CC4CC4)CC3)c3c2OCC3)nc2[nH]cc(C(F)(F)F)c12 | 44
* CCNc1cc(Nc2ccc(C(=O)N3CCC(N4C[C@@H]5C[C@H]4CO5)CC3)c3c2OCC3)nc2[nH]cc(C(F)(F)F)c12 | 33.2
* CCNc1cc(Nc2ccc(P3(=O)CCN(C4CCOCC4)CC3)cc2OC)nc2[nH]cc(C(F)(F)F)c12 | 21
* O=C(c1ccc(Nc2cc(C3CC3)c3c(C(F)(F)F)c[nH]c3n2)c2c1CCO2)N1CCOCC1 | 52.5
* COCCNc1cc(Nc2ccc(C(=O)N3CCOCC3)c3c2OCC3)nc2[nH]cc(C(F)(F)F)c12 | 46.9
* CNc1cc(Nc2ccc(S(=O)(=O)N3CCC(N4CCOCC4)CC3)c3c2OCCO3)nc2[nH]cc(C(F)(F)F)c12 | 4.3
* CNc1cc(Nc2ccc(C(=O)N3CCC(N4CCOCC4)CC3)c3c2OCO3)nc2[nH]cc(C(F)(F)F)c12 | 22.9
* COc1cc(S(=O)(=O)N2CCC(N3CCOCC3)CC2)ccc1Nc1cc(NCCS(C)(=O)=O)c2c(C(F)(F)F)c[nH]c2n1 | 6.3
* CCNc1cc(Nc2ccc(C(=O)N3CCC(N4CCN(C)CC4)CC3)c3c2OCC3)nc2[nH]cc(C(F)(F)F)c12 | 31.9
* CNc1cc(Nc2ccc(C(=O)N3CCOCC3)c3c2OCO3)nc2[nH]cc(C(F)(F)F)c12 | 36.1

Proceeding to the next molecule to report its inhibition at 0.5 µM.
For IL-6, provide inhibition at 0.5 µM of COCCNc1cc(Nc2ccc(S(=O)(=O)N3CCC(N4CCOCC4)CC3)c3c2OCCO3)nc2[nH]cc(C(F)(F)F)c12 please.
17

---

Target system: LRRK2, LRRK2 (G2019S), DYRK1, CLK1 and TTK kinases (Homo sapiens)
Construct: CLK1 IC50 (marked with *); other: CLK1; Kinase HotSpot service (Reaction Biology), ATP 10 uM
Sequence (P49759 whole entry, stated change not applied): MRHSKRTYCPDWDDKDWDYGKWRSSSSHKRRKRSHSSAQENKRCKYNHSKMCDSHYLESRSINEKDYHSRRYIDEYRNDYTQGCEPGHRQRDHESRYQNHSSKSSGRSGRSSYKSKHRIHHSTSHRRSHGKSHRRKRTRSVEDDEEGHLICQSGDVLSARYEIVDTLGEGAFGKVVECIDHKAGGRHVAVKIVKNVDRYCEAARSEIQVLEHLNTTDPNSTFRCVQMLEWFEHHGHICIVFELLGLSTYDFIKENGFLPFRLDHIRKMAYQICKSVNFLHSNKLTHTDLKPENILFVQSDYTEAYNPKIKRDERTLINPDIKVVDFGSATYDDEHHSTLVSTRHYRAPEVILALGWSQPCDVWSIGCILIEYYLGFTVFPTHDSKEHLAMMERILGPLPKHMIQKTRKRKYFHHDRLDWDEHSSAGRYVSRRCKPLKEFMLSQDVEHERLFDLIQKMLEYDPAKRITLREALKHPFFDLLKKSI
Test protocol: Enzyme IC50 by Kinase HotSpot service (Reaction Biology Corporation), values marked with *
Condition info: CLK1, ATP 10 uM
pIC50: −log10 of the molar value.
Measured parameter: pIC50

Report pIC50 for O=C(c1ccc(Nc2cc(C3CC3)c3c(C(F)(F)F)c[nH]c3n2)c2c1CCO2)N1CC[C@@H](N2CCOCC2)C1 tested on LRRK2, LRRK2 (G2019S), DYRK1, CLK1 and TTK kinases (Homo sapiens).
> 7.00

Identify the measured pIC50 of COc1cc(S(=O)(=O)N2CCC(N3C[C@H]4C[C@@H]3CO4)CC2)ccc1Nc1cc(C2CC2)c2c(C(F)(F)F)c[nH]c2n1 for LRRK2, LRRK2 (G2019S), DYRK1, CLK1 and TTK kinases (Homo sapiens).
> 7.00

# get_value(readout= pIC50, system= LRRK2, LRRK2 (G2019S), DYRK1, CLK1 and TTK kinases (Homo sapiens)) for COc1cc(S(=O)(=O)N2CCC(N3C[C@@H]4C[C@H]3CO4)CC2)ccc1Nc1cc(C2CC2)c2c(C(F)(F)F)c[nH]c2n1
> 7.00

---

Target system: CLK2 (Homo sapiens)
Construct: purchased DiscoverX
Sequence (P49760 whole entry): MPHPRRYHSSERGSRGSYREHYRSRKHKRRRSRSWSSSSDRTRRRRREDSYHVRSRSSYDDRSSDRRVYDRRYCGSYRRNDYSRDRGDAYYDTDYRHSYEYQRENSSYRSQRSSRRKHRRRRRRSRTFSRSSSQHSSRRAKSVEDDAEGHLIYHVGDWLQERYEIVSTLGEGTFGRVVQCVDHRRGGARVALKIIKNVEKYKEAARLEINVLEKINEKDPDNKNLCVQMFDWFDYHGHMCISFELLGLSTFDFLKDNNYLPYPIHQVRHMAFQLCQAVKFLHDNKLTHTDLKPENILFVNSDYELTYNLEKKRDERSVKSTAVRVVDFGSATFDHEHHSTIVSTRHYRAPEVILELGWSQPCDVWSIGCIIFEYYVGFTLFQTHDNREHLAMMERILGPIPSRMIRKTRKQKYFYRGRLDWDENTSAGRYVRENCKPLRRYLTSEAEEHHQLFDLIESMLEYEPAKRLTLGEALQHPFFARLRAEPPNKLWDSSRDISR
Test protocol: scanMAX Kinase panel (DiscoverX), % control
Format: binding
Condition info: <35% = active
Measured parameter: remaining binding at 1 µM (%)

• CCCNc1cc(Nc2ccc(C(=O)N3CCC(N4CCOCC4)CC3)c3c2OCCO3)nc2[nH]cc(C(F)(F)F)c12 [Example 162] = 0.65

(A) CCNc1cc(Nc2ccc(C(=O)N3CCC(N4C[C@@H]5C[C@H]4CO5)CC3)c3c2OCC3)nc2[nH]cc(C(F)(F)F)c12 [Example 105]
(B) CNc1cc(Nc2ccc(C(=O)N3CCC(N4CCOCC4)CC3)c3c2OCCO3)nc2[nH]cc(C(F)(F)F)c12 [Example 160]
(C) CNc1cc(Nc2ccc(P3(=O)CCN(C4CC4)CC3)cc2OC)nc2[nH]cc(C(F)(F)F)c12 [Example 205]
(D) O=C(c1ccc(Nc2cc(C3CC3)c3c(C(F)(F)F)c[nH]c3n2)c2c1OCCO2)N1CCC(N2CCOCC2)CC1 [Example 221]
Arrange the 4 entries by remaining binding at 1 µM so the values rise. A ranking is expressed here by listing the labels in the requested order.
C, A, B, D
